Experimental details: AUC (0 to infinity) in ICR mouse at 10 mg/kg, po measured upto 24 hrs by LC-MS/MS analysis
Assay type: ADME, organism-based
Set-up: dose 10 mg/kg, time < 24 hrs, route po
Condition notes: in vivo
Readout kind: AUC(0-inf)
I'd appreciate it if you included the unit after the number.

Which AUC(0-inf) is reported for this molecule? Cc1c2cc(cc1C(=O)Nc1cc(CN3CCN(C)CC3)cc(C3CC3)c1)OCCCCCCCNC(=O)c1ccc3ncc(n3n1)C#C2
707 ng·h/mL

---

Measured target: Receptor-type tyrosine-protein kinase FLT3 (Homo sapiens, UniProt P36888)
Sequence (P36888 whole entry): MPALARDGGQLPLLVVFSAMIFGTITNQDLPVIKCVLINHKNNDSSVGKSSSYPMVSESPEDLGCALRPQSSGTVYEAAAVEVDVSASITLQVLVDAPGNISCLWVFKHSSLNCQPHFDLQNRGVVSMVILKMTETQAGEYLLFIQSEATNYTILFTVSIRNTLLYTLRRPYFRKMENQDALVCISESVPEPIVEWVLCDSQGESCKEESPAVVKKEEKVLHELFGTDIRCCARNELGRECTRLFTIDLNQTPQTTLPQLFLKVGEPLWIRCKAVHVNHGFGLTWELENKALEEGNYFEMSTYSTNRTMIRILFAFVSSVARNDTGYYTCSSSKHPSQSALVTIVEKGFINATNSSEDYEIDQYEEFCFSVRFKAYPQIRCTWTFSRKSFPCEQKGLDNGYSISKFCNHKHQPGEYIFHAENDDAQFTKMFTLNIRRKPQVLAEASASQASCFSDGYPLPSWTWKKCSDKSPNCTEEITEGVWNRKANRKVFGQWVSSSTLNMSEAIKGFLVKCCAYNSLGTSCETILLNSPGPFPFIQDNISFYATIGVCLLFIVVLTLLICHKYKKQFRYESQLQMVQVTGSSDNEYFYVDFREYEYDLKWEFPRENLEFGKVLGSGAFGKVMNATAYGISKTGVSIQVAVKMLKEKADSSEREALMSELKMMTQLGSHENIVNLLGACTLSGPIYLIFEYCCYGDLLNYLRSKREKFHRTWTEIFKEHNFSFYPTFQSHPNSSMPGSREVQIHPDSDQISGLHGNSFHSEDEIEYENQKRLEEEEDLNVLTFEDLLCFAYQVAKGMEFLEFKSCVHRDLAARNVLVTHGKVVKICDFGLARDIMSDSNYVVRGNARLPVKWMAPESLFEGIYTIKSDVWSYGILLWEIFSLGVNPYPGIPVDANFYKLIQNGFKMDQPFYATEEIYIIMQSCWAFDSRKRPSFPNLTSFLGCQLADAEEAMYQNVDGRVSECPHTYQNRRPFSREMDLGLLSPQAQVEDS
Readout kind: IC50 (nM)
Answer format: numeric, nM implied, no suffix.

Request - read-out IC50 | tested on Receptor-type tyrosine-protein kinase FLT3 (Homo sapiens, UniProt P36888) | compound Cc1c2cc(cc1C(=O)Nc1cc(CN3CCN(C)CC3)cc(C3CC3)c1)OCCCCCCCNC(=O)c1ccc3ncc(n3n1)C#C2
11.6

---

Measured target: High affinity nerve growth factor receptor (Homo sapiens, UniProt P04629, G667C)
Sequence (P04629 33-796 G667C limits assumed): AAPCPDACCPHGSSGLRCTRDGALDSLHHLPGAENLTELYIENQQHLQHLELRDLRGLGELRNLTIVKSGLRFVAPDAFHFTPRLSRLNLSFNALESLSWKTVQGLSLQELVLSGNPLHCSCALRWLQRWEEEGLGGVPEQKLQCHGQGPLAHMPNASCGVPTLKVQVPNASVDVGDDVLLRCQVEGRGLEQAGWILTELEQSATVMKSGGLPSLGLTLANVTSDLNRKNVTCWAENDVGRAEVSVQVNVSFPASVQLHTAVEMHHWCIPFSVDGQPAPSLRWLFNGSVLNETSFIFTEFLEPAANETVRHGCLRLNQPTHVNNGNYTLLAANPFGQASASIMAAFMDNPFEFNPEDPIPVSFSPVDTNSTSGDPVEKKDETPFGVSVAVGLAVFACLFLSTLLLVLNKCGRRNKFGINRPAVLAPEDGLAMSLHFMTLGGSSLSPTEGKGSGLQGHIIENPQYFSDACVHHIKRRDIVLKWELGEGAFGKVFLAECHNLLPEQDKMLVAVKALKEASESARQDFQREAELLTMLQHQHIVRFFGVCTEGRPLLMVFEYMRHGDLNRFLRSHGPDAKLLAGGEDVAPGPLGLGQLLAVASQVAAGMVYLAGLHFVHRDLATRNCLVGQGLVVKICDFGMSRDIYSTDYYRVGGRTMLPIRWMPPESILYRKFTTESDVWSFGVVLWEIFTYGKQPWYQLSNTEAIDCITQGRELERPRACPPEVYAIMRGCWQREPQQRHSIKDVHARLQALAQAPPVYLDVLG
Experimental details: Inhibition of TRKA G667C mutant (unknown origin) expressed in baculovirus expression system Sf9 cells using Ser/Thr 06 as peptide substrate incubated for 1 hr in presence of ATP by FRET based Z-LYTE assay
Readout kind: IC50
I'd appreciate it if you included the unit after the number.

Consider the following illustrative entries.
1) Cc1cn(-c2cc(NC(=O)c3cc4cc(c3C)C#Cc3cnc5ccc(nn35)C(=O)NCCCCCCCCO4)cc(C(F)(F)F)c2)cn1
7.5 nM
2) Cc1cn(-c2cc(NC(=O)c3cc4cc(c3C)C#Cc3cnc5ccc(nn35)NCCNC(=O)CCCCO4)cc(C(F)(F)F)c2)cn1
8.21 nM
3) Cc1c2cc(cc1C(=O)Nc1cc(Cl)cc(C(F)(F)F)c1)OCCCCCCCNC(=O)c1ccc3ncc(n3n1)C#C2
8.08 nM

Which IC50 is reported for this compound? Cc1cn(-c2cc(NC(=O)c3cc4cc(c3C)C#Cc3cnc5ccc(nn35)C(=O)NCCCCCCO4)cc(C(F)(F)F)c2)cn1
12.2 nM

---

Measured target: High affinity nerve growth factor receptor (Homo sapiens, UniProt P04629, G595R)
Sequence (P04629 33-796 G595R limits assumed): as the sequence (P04629 33-796 G667C limits assumed) above, with G563R, C635G counted along it
Experimental details: Inhibition of TRKA G595R mutant (unknown origin) expressed in baculovirus expression system Sf9 cells using Ser/Thr 06 as peptide substrate incubated for 1 hr in presence of ATP by FRET based Z-LYTE assay
Readout kind: IC50

Consider the following illustrative entries.
1. Cc1c2cc(cc1C(=O)Nc1ccc(CN3CCN(C)CC3)c(C(F)(F)F)c1)OCCCCCCCNC(=O)c1ccc3ncc(n3n1)C#C2
> 1 µM
2. Cc1cn(-c2cc(NC(=O)c3cc4cc(c3C)C#Cc3cnc5ccc(nn35)C(=O)NCCCCCCCCO4)cc(C(F)(F)F)c2)cn1
> 1 µM
3. Cc1cn(-c2cc(NC(=O)c3cc4cc(c3C)C#Cc3cnc5ccc(nn35)NCCNC(=O)CCCCO4)cc(C(F)(F)F)c2)cn1
> 1 µM

Switching to the query record.
Which IC50 is reported for this compound? Cc1c2cc(cc1C(=O)Nc1cc(Cl)cc(C(F)(F)F)c1)OCCCCCCCNC(=O)c1ccc3ncc(n3n1)C#C2
> 1 µM

---

Measured target: High affinity nerve growth factor receptor (Homo sapiens)
This section presents molecules with their documented IC50 values.
Answer format: numeric, nM implied, no suffix.

1) Cc1cn(-c2cc(NC(=O)c3cc4cc(c3C)C#Cc3cnc5ccc(nn35)C(=O)NCCCCCO4)cc(C(F)(F)F)c2)cn1
58.1
2) Cc1cn(-c2cc(NC(=O)c3cc4cc(c3C)C#Cc3cnc5ccc(nn35)NCCC(=O)N(C)CCCCO4)cc(C(F)(F)F)c2)cn1
21.1
3) Cc1c2cc(cc1C(=O)Nc1cc(C(C)(C)C)nn1-c1ccc(Cl)cc1)OCCCCCCCNC(=O)c1ccc3ncc(n3n1)C#C2
164
4) Cc1c2cc(cc1C(=O)Nc1cc(N3CCC(N4CCOCC4)CC3)cc(C(F)(F)F)c1)OCCCCCCCNC(=O)c1ccc3ncc(n3n1)C#C2
26.1
5) Cc1c2cc(cc1C(=O)Nc1cc(Cl)cc(C(F)(F)F)c1)OCCCCCCCNC(=O)c1ccc3ncc(n3n1)C#C2
39.8
6) Cc1c2cc(cc1C(=O)Nc1cc(CN3CCN(C)CC3)cc(C(C)(C)C)c1)OCCCCCCCNC(=O)c1ccc3ncc(n3n1)C#C2
19
7) Cc1cn(-c2cc(NC(=O)c3cc4cc(c3C)C#Cc3cnc5ccc(nn35)NCCC(=O)NCCCCO4)cc(C(F)(F)F)c2)cn1
21

Request - read-out IC50 | tested on High affinity nerve growth factor receptor (Homo sapiens) | molecule Cc1cn(-c2cc(NC(=O)c3cc4cc(c3C)C#Cc3cnc5ccc(nn35)NCCNC(=O)CCCCO4)cc(C(F)(F)F)c2)cn1
24.8
